# Test system: NOMO1
# assay_protocol: cell viability relative to DMSO control; higher = less cytotoxic
# applied_conditions: RPMI 5 mM glucose + 10% dialyzed FBS; 48 h; 5.12 µM

- molecule: "CC[C@H]1OC(=O)[C@H](C)[C@@H](O[C@H]2C[C@@](C)(OC)[C@@H](O)[C@H](C)O2)[C@H](C)[C@@H](O[C@@H]2O[C@H](C)C[C@H](N(C)C)[C@H]2O)[C@](C)(O)C[C@@H](C)/C(=N\\OCOCCOC)[C@H](C)[C@@H](O)[C@]1(C)O"
  assayed_system: "NOMO1"
  cell viability: "80.1%"
- molecule: "Cc1nnc(C(=O)NC(C)(C)c2nc(C(=O)NCc3ccc(F)cc3)c(O)c(=O)n2C)o1"
  assayed_system: "NOMO1"
  cell viability: "93.7%"
- molecule: "CCN(CC)CCCC(C)Nc1ccnc2cc(Cl)ccc12 (stereo not drawn)"
  assayed_system: "NOMO1"
  cell viability: "107%"
- molecule: "Cc1cccc(-c2[nH]c(C(C)(C)C)nc2-c2ccc3nccnc3c2)n1"
  assayed_system: "NOMO1"
  cell viability: "112%"
- molecule: "CCC(=O)O[C@@]1(CC[C@H]2[C@@H]3CCC/4=C/C(=O)CC[C@]4(C)[C@H]3CC[C@]12C)C(=O)CO"
  assayed_system: "NOMO1"
  cell viability: "128%"
- molecule: "CC[C@H](CO)Nc1nc(NCc2ccccc2)c2ncn(C(C)C)c2n1"
  assayed_system: "NOMO1"
  cell viability: "94.2%"
- molecule: "COc1cccc(N(C)C(=S)Oc2ccc3c(c2)CCCC3)n1"
  assayed_system: "NOMO1"
  cell viability: "105%"
- molecule: "CC(=O)N(O)CCCCCNC(=O)CCC(=O)N(O)CCCCCNC(=O)CCC(=O)N(O)CCCCCN.C[S+](=O)([O-])O"
  assayed_system: "NOMO1"
  cell viability: "23.8%"

---

# Tested on: SEM cells
# assay_protocol: cell viability relative to DMSO control; higher = less cytotoxic
# applied_conditions: HPLM + 10% dialyzed FBS; 48 h; 0.00234 µM

- compound: "Cc1nnc(C(C)C)n1[C@@H]1C[C@H]2CC[C@@H](C1)N2CC[C@H](NC(=O)C1CCC(F)(F)CC1)c1ccccc1"
  cell viability, %: 90.9
- compound: "COC(=O)CCC1=C(C)C2=CC3=NC(=CC4=C(C)C(=C([NH]4)C=C\\5N=C(C=C1[NH]2)\\C(=C5C)CCC(O)=O)C=C)\\C6=C\\C=C(/[C@@H](C(=O)OC)[C@@]36C)C(=O)OC"
  cell viability, %: 83.3
- compound: "CC(C)C[C@H](CC(=O)O)C(=O)N[C@@H](Cc1c[nH]c2ccccc12)C(=O)N[C@@H](C)c1ccccc1"
  cell viability, %: 100
- compound: "CCN1\\C=C(C(O)=O)/C(=O)C2=C1C(=C(N3CCNC(C)C3)C(=C2)F)F (centres undefined)"
  cell viability, %: 99

---

Catalogue of cell viability readings, one per entry.
# Test system: P12-Ichikawa
# assay_protocol: cell viability relative to DMSO control; higher = less cytotoxic
# applied_conditions: HPLM + 10% dialyzed FBS; 48 h; 5.12 µM
quantity: cell viability (%)

- compound: "Clc1ccc(C(c2ccc(Cl)cc2)[n+]2ccn(CC(OCc3ccc(Cl)cc3Cl)c3ccc(Cl)cc3Cl)c2)cc1 (configuration not stated)"
  test_value: 102
- compound: "COC(=O)CCC1=C(C)C2=CC3=NC(=CC4=C(C)C(=C([NH]4)C=C\\5N=C(C=C1[NH]2)\\C(=C5C)CCC(O)=O)C=C)\\C6=C\\C=C(/[C@@H](C(=O)OC)[C@@]36C)C(=O)OC"
  test_value: 101
- compound: "c1cc2c(cc1[C@H]1OC[C@H]3[C@@H]1CO[C@@H]3c1ccc3c(c1)OCO3)OCO2"
  test_value: 119
- compound: "O=C(O)c1cccc(-c2noc(-c3ccccc3F)n2)c1"
  test_value: 101
- compound: "CC(=O)OCC(=O)[C@@]1(O)CC[C@H]2[C@@H]3CCC/4=C/C(=O)/C=C\\[C@]4(C)[C@H]3[C@@H](O)C[C@]12C"
  test_value: 66.4
- compound: "CN1CCN(CC1)C2=CC3=C([NH]C(=N3)C/4=C(\\N)C5=C(F)C=CC=C5NC4=O)C=C2"
  test_value: 73
- compound: "Nc1ncnc2nc(-c3ccc(N4CCOCC4)nc3)cc(-c3cccc(Br)c3)c12"
  test_value: 111

---

Consider the following compounds and their measured cell viability readings.
# Tested on: SEM cells
# assay_protocol: cell viability relative to DMSO control; higher = less cytotoxic
# applied_conditions: RPMI 5 mM glucose + 10% dialyzed FBS; 48 h; 0.000781 µM
quantity: cell viability (%)

- compound: "C[C@@H](Cc1cc2c(c(C(N)=O)c1)N(CCCO)CC2)NCCOc1ccccc1OCC(F)(F)F"
  test_value: 93.4
- compound: "CNC(=O)c1nn(C)c2c1C(C)(C)Cc1cnc(Nc3ccc(N4CCN(C)CC4)cc3)nc1-2"
  test_value: 97.9
- compound: "C=C1CCC2[C@](C)(CO)C(O)CC[C@]2(C)C1C/C=C1/C(=O)OCC1O (some centres undefined)"
  test_value: 129
- compound: "CCCCCN(C)CCC(O)(P(=O)([O-])O)P(=O)(O)O"
  test_value: 70
- compound: "Clc1ccc(C(c2ccc(Cl)cc2)[n+]2ccn(CC(OCc3ccc(Cl)cc3Cl)c3ccc(Cl)cc3Cl)c2)cc1 (centres undefined)"
  test_value: 112
- compound: "Nc1nccc(-c2ccc3noc(-c4ccc(Cl)cc4)c3c2)n1"
  test_value: 118
- compound: "NC[C@H](O)c1ccc(O)c(O)c1"
  test_value: 84.9
- compound: "COC(=O)[C@H](Cc1ccccc1)NC(=O)[C@@H](N)CC(=O)O"
  test_value: 124
- compound: "CC(C)[C@H](C(=O)Nc1ccc(C(=O)NO)cc1)c1ccccc1"
  test_value: 105

---

# Tested on: SEM cells
# assay_protocol: cell viability relative to DMSO control; higher = less cytotoxic
# applied_conditions: RPMI 5 mM glucose + 10% FBS; 48 h; 5.12 µM
Response field label takes true (1) when cell viability is strictly below 40% and false (0) in all other cases.

- molecule: "CC(C)(Sc1cc(C(C)(C)C)c(O)c(C(C)(C)C)c1)Sc1cc(C(C)(C)C)c(O)c(C(C)(C)C)c1"
  category: "false (0)"
- molecule: "Clc1ccc(C(c2ccc(Cl)cc2)[n+]2ccn(CC(OCc3ccc(Cl)cc3Cl)c3ccc(Cl)cc3Cl)c2)cc1 (stereo not drawn)"
  category: "false (0)"
- molecule: "OC1CCC(CC1)N2\\C=N/C3=C(C2=N)C(=C([N]3CC4=CC=CC=C4)C5=CC=CC=C5)C6=CC=CC=C6 (stereo not drawn)"
  category: "true (1)"
- molecule: "Cc1cccc(-c2[nH]c(C(C)(C)C)nc2-c2ccc3nccnc3c2)n1"
  category: "false (0)"
- molecule: "COCCCC/C(=N\\OCCN)c1ccc(C(F)(F)F)cc1"
  category: "false (0)"
- molecule: "CCC(=O)O[C@@]1(CC[C@H]2[C@@H]3CCC/4=C/C(=O)CC[C@]4(C)[C@H]3CC[C@]12C)C(=O)CO"
  category: "true (1)"
- molecule: "CC(C)[C@]12O[C@H]1[C@@H]3O[C@@]34[C@@]5(C)CC\\C6=C(COC6=O)/[C@@H]5C[C@@H]7O[C@]47[C@@H]2O"
  category: "true (1)"
- molecule: "O=C(NOCC1CC1)c1ccc(F)c(F)c1Nc1ccc(I)cc1Cl"
  category: "false (0)"

---

Recorded cell viability by entry
# System: NOMO1
# assay_protocol: cell viability relative to DMSO control; higher = less cytotoxic
# applied_conditions: HPLM + 10% dialyzed FBS; 48 h; 5.12 µM
quantity: cell viability

- compound: "Cc1cccc(-c2[nH]c(C(C)(C)C)nc2-c2ccc3nccnc3c2)n1"
  test_value: "112%"
- compound: "Clc1ccc(C(c2ccccc2Cl)C(Cl)Cl)cc1 (centres undefined)"
  test_value: "114%"
- compound: "Cc1nnc(C(C)C)n1[C@@H]1C[C@H]2CC[C@@H](C1)N2CC[C@H](NC(=O)C1CCC(F)(F)CC1)c1ccccc1"
  test_value: "103%"
- compound: "O=C1c2ccccc2-c2n[nH]c3cccc1c23"
  test_value: "102%"

---

# System: SEM cells
# assay_protocol: cell viability relative to DMSO control; higher = less cytotoxic
# applied_conditions: RPMI 5 mM glucose + 10% dialyzed FBS; 48 h; 15.4 µM
# Lookup of reported cell viability keyed by entry

- compound: "OC[C@H]1OC(O)C[C@@H](O)[C@@H]1O (some centres undefined)"
  cell viability / %: 116
- compound: "c1coc(CNc2ncnc3nc[nH]c23)c1"
  cell viability / %: 119
- compound: "Nc1ncnc2nc(-c3ccc(N4CCOCC4)nc3)cc(-c3cccc(Br)c3)c12"
  cell viability / %: 123
- compound: "COCC(=O)NC/C=C/c1ccc2ncnc(Nc3ccc(Oc4ccc(C)nc4)c(C)c3)c2c1"
  cell viability / %: 88
- compound: "COCCCC/C(=N\\OCCN)c1ccc(C(F)(F)F)cc1"
  cell viability / %: 93.1
- compound: "CN(C[C@@H]1COCCO1)[S+]([O-])(=O)NC2=CC3=C(C=C2)\\C=C/C4=C(C=C(C=N4)C5=C[N](C)N=C5)C3=O"
  cell viability / %: 17.3
- compound: "Cc1ccc(C(=O)Nc2ccc([S+](=O)([O-])O)c3cc([S+](=O)([O-])O)cc([S+](=O)([O-])O)c23)cc1NC(=O)c1cccc(NC(=O)Nc2cccc(C(=O)Nc3cc(C(=O)Nc4ccc([S+](=O)([O-])O)c5cc([S+](=O)([O-])O)cc([S+](=O)([O-])O)c45)ccc3C)c2)c1"
  cell viability / %: 23.9
- compound: "CCCC[S+](=N)([O-])CCC(N)C(=O)O (centres undefined)"
  cell viability / %: 111
- compound: "Clc1ccc(CCC(Cn2ccnc2)Sc2c(Cl)cccc2Cl)cc1 (centres undefined)"
  cell viability / %: 85.3
- compound: "OC(=O)CNC(=O)\\C1=C(/O)C2=CC=CC=C2N(CC3=CC=CC=C3)C1=O"
  cell viability / %: 86.3
- compound: "CN(C)c1ccc(-c2nc3c(N4CCN(CC(=O)Nc5nccs5)CC4)c(Cl)cnc3[nH]2)cc1"
  cell viability / %: 71.1
- compound: "OC1=C(Cl)C=C(N\\C2=C(\\C(=O)NC2=O)C3=C(C=CC=C3)[N+]([O-])=O)C=C1"
  cell viability / %: 62.8
- compound: "CC(C)[C@H](O)C(=O)N[C@@H](C)C(=O)N[C@@H]1C(=O)N(C)CCc2ccccc21"
  cell viability / %: 106
- compound: "C=C1CCC2[C@](C)(CO)C(O)CC[C@]2(C)C1C/C=C1/C(=O)OCC1O (some centres undefined)"
  cell viability / %: 96.3
- compound: "CC1(C)[C@@H](O)CC[C@@]2(C)[C@H]1CC[C@]3(C)[C@@H]2C(=O)\\C=C/4[C@@H]5C[C@](C)(CC[C@]5(C)CC[C@@]34C)C(O)=O"
  cell viability / %: 107
- compound: "COC1=CC=C(C=C1)C/2=C(OC3O[C@@H](C)[C@H](O)[C@@H](O)[C@H]3O)/C(=O)C4=C(O2)C(=C(OC5O[C@H](CO)[C@@H](O)[C@H](O)[C@H]5O)C=C4O)CC=C(C)C (some centres undefined)"
  cell viability / %: 80.7
- compound: "Clc1ccc(C(c2ccc(Cl)cc2)[n+]2ccn(CC(OCc3ccc(Cl)cc3Cl)c3ccc(Cl)cc3Cl)c2)cc1 (centres undefined)"
  cell viability / %: 83.3
- compound: "CC(O)(C[S+](=O)([O-])c1ccc(F)cc1)C(=O)Nc1ccc(C#N)c(C(F)(F)F)c1 (centres undefined)"
  cell viability / %: 72.3
- compound: "CC(C)C[C@H](CC(=O)O)C(=O)N[C@@H](Cc1c[nH]c2ccccc12)C(=O)N[C@@H](C)c1ccccc1"
  cell viability / %: 53.7
- compound: "O=C1\\C=C(OC2=C(C=CC=C12)C3=CC=CC4=C3SC5=C4C=CC=C5)\\N6CCOCC6"
  cell viability / %: 75.7
- compound: "O=C(Nc1cccnc1)N1CCC(Cc2cccc(Oc3ccc(C(F)(F)F)cn3)c2)CC1"
  cell viability / %: 14.4
- compound: "NC(=O)N1CCC(CC(=O)N2CCC([C@H]3c4ncc(Br)cc4CCc4cc(Cl)cc(Br)c43)CC2)CC1"
  cell viability / %: 58
- compound: "COc1ccc(/C=C/C(=O)Nc2ccccc2C(=O)O)cc1OC"
  cell viability / %: 129
- compound: "C/C=C(\\C)C(=O)N[C@@H](c1ccccc1)[C@@H](O)C(=O)O[C@H]1C[C@@]2(O)[C@@H](OC(=O)c3ccccc3)[C@@H]3[C@]4(OC(C)=O)CO[C@@H]4C[C@H](O)[C@@]3(C)C(=O)[C@H](OC(C)=O)C(=C1C)C2(C)C"
  cell viability / %: 15.5
